Listed next: entries and their corresponding melting point.
property name: melting point

In [3]: df
Out[3]:
                                    molecule  property_name  reported_measurement
 0                 Cc1ccc2cccnc2c1S(N)(=O)=O  melting point         170 to 172 °C
 1  CC1(c2ccc(F)c(F)c2)NC(=O)NC1=O (stereo not drawn)  melting point         175 to 177 °C
 2               Nc1nnc(-c2ccc3c(c2)OCCO3)o1  melting point         247 to 249 °C
 3                       Cc1nc(N2CCNCC2)sc1C  melting point           72 to 74 °C
 4                   CCC(=O)Nc1ccc(Cl)c(N)c1  melting point         105 to 107 °C
 5                   OCCNc1ccc(-c2ccccc2)nn1  melting point         162 to 164 °C
 6                    Cc1nn(-c2ccccc2)cc1C=O  melting point           58 to 60 °C
 7         Cc1nc(-c2cccc([N+](=O)[O-])c2)no1  melting point         108 to 110 °C
 8  C1C2CC3CC1CC(C2)C31CO1 (stereo not drawn)  melting point         180 to 182 °C
 9  O=C(O)c1cc(S(=O)(=O)N2CCCCC2)ccc1N1CCCCC1  melting point         143 to 145 °C
10  N#Cc1ccc(C(Cl)C(N)=O)cc1 (stereo not drawn)  melting point         114 to 116 °C
11                 N#Cc1ccc(Oc2ccc(O)cc2)cc1  melting point         148 to 150 °C
12   COc1ccccc1NS(=O)(=O)c1cc(N)ccc1N1CCOCC1  melting point         197 to 199 °C
13                      CCc1ccc(C(=O)CCl)cc1  melting point           41 to 43 °C
14  COC(=O)NC(Cc1ccccc1)C(=O)O (stereo not drawn)  melting point           75 to 77 °C
15                  N#Cc1ccc(COc2ccccc2F)cc1  melting point           68 to 70 °C
16        COC(=O)c1ccc(COc2ccc(C=O)cc2OC)cc1  melting point         129 to 131 °C
17                    O=C(O)c1cnc2ccccn2c1=O  melting point         251 to 253 °C
18               CN1C(=CC=O)C(C)(C)c2ccccc21  melting point           93 to 95 °C
19                     O=Cc1csc(-c2ccccn2)n1  melting point         130 to 132 °C
20               CCOC(=O)c1cnc(C)c(C(=O)O)c1  melting point         199 to 201 °C
21                   Fc1cc(Br)cc2c(Cl)ccnc12  melting point         149 to 151 °C
22              CCc1cc(=O)[nH]c(-c2ccccc2)n1  melting point         162 to 164 °C
23      O=C1NCCC1c1ccccc1 (stereo not drawn)  melting point           82 to 84 °C
24  COc1cc(S(=O)(=O)Nc2ccc3c[nH]nc3c2)ccc1Br  melting point         199 to 201 °C
25                  N#Cc1c(N2CCOCC2)n[nH]c1N  melting point         195 to 197 °C
26                     CCOc1ccc(C(=O)CCl)cc1  melting point           63 to 65 °C
27    O=C(O)C1CC1c1ccncc1 (stereo not drawn)  melting point         228 to 230 °C
